Listed here are compounds together with their documented IC50.
Biological target: GST-tagged KRAS-G12D (2-169) (Homo sapiens, UniProt P01116, G12D)
Experiment: Nucleotide exchange assay (NEA), SOS-mediated, HTRF, KRAS G12D
Assay type: biochemical
Settings: Table 4; IC50 extracted at 30 min; 20 nM SOScat; read-out: NEA G12D IC50

These recorded examples may help you get a feel for the data.
1. CCN(c1nc(OCC2(CO)CCCN2)nc(N2CC3(C2)SCc2sc(N)c(C#N)c23)n1)[C@H](C)c1cccnc1N (stereo partly shown) : < 10 nM
2. CCN(c1nc(OC[C@@]23CCCN2C[C@H](F)C3)nc(N2CC3(C2)SCc2sc(N)c(C#N)c23)n1)C(C)c1nonc1N (stereo partly shown) : 10 to 100 nM
3. N#Cc1c(N)sc2c1C1(CC2)CCN(c2nc(OC[C@@]34CCCN3C[C@H](F)C4)nc(N3CCCC(C#N)CC3)n2)C1 (stereo partly shown) : 100 to 1000 nM
4. CCN(c1nc(OC[C@@]23CCCN2C[C@H](F)C3)nc(N2CC3(C2)SCc2sc(N)c(C#N)c23)n1)C(C)CC#N (stereo partly shown) : < 10 nM
5. CC1(O)CC(F)CN(c2nc(OCC3(CN4CCOCC4)CC3)nc(N3CC4(CCc5sc(N)c(C#N)c54)C3)n2)C1 (stereo not shown) : < 10 nM
6. COc1ccc(C(C)N(C)c2nc(OC[C@@]34CCCN3C[C@H](F)C4)nc(N3CC4(C3)SCc3sc(N)c(C#N)c34)n2)c(N)n1 (stereo partly shown) : 1000 to 20000 nM

// query Fill in the blank: the reported IC50 of C[C@@]1(O)CCCN(c2nc(OCC3(CN4CCOCC4)CC3)nc(N3CC4(C3)c3c(sc(N)c3C#N)CC4F)n2)C1 (stereo partly shown) is ____.
// result < 10 nM

// query Fill in the blank: the reported IC50 of C[C@H](c1ccc(P(C)(C)=O)nc1N)N(C)c1nc(OC[C@@]23CCCN2C[C@H](F)C3)nc(N2CC3(C2)SCc2sc(N)c(C#N)c23)n1 is ____.
// result 1000 to 20000 nM

// query Fill in the blank: the reported IC50 of N#Cc1c(N)sc2c1C1(CN(c3nc(OCC4(CN5CCOCC5)CC4)nc(N4CCNC[C@H]4C(F)F)n3)C1)SC2 is ____.
// result < 10 nM

* * *

Test system: phospho-ERK in SW620 (KRAS-G12V) cells
Assay: pERK In Cell Western (ICW) assay (Method B), SW620
Type: cell-based
Settings: Homo sapiens, SW-620, 3 h, Table 4
Listed here are compounds together with their documented IC50.

1) CC(c1cccnc1N)N(C)c1nc(OCCc2nccn2C)nc(N2CC3(CCc4sc(N)c(C#N)c43)C2)n1 (stereo not shown) : 100 to 1000 nM

// query Fill in the blank: the reported IC50 of C[C@H](c1cccnc1N)N(CCF)c1nc(OC[C@@]23CCCN2C[C@H](F)C3)nc(N2CC3(C2)SCc2sc(N)c(C#N)c23)n1 is ____.
// result < 10 nM

// query Fill in the blank: the reported IC50 of CCN(c1nc(OC[C@@]23CCCN2C[C@H](F)C3)nc(N2CC3(C2)SCc2sc(N)c(C#N)c23)n1)C(C)c1nccnc1N (single isomer, unassigned) [Compound 168A] is ____.
// result < 10 nM

// query Fill in the blank: the reported IC50 of C[C@@]1(O)CCCN(c2nc(OCC3(CN4CCOCC4)CC3)nc(N3CC4(C3)c3c(sc(N)c3C#N)CC4(F)F)n2)C1 is ____.
// result 100 to 1000 nM

// query Fill in the blank: the reported IC50 of N#Cc1c(N)sc2c1C1(CC2)CN(c2nc(OC[C@@]34CCCN3C[C@H](F)C4)nc(N3CCCOC[C@H]3CO)n2)C1 is ____.
// result 1000 to 20000 nM

// query Fill in the blank: the reported IC50 of C[C@@]1(O)CCCN(c2nc(OCC3(CN4CCOCC4)CC3)nc(N3CC4(C3)c3c(sc(N)c3C#N)CC4F)n2)C1 (stereo partly shown) is ____.
// result 100 to 1000 nM

// query Fill in the blank: the reported IC50 of CCN(c1nc(OC[C@@]23CCCN2C[C@H](F)C3)nc(N2CC3(CCc4sc(N)c(C#N)c43)C2=O)n1)[C@H](C)c1cccnc1N (stereo partly shown) is ____.
// result 10 to 100 nM

// query Fill in the blank: the reported IC50 of CC(c1nonc1N)N(C)c1nc(OC[C@@]23CCCN2C[C@H](F)C3)nc(N2CC3(CCc4sc(N)c(C#N)c43)C2)n1 (stereo partly shown) is ____.
// result 10 to 100 nM

* * *

Test system: phospho-ERK in SW620 (KRAS-G12V) cells
Assay: pERK In Cell Western (ICW) assay (Method B), SW620
Format: cell-based
Conditions: Homo sapiens, SW-620, 3 h, Table 4
Listed here are compounds together with their documented IC50.

These recorded examples may help you get a feel for the data.
1. CC1(NC#N)CCCN(c2nc(OC[C@@]34CCCN3C[C@H](F)C4)nc(N3CC4(CCc5sc(N)c(C#N)c54)C3)n2)C1 (stereo partly drawn) [Compound 52] : 1000 to 20000 nM
2. N#Cc1c(N)sc2c1C1(CC2)CN(c2nc(OC[C@@]34CCCN3C[C@H](F)C4)nc(N3CCC[C@@H](O)[C@@H](O)C3)n2)C1 [Compound 81] : 1000 to 20000 nM
3. CCN(c1nc(OC[C@@]23CCCN2C[C@H](F)C3)nc(N2CC3(C2)SCc2sc(N)c(C#N)c23)n1)C1(C#N)CC1 [Compound 238] : 10 to 100 nM
4. N#Cc1c(N)sc2c1C1(CC2)CN(c2nc(OC[C@@]34CCCN3C[C@H](F)C4)nc(N3CCc4n[nH]c(N)c4C3)n2)C1 [Compound 35] : ≥ 20000 nM
5. N#Cc1c(N)sc2c1C1(CN(c3nc(OCC4(CN5CCOCC5)CC4)nc(N4C[C@H]5CC[C@@H](C4)N5)n3)C1)SC2 [Compound 167] : 1000 to 20000 nM

// query Fill in the blank: the reported IC50 of N#Cc1c(N)sc2c1C1(CN(c3nc(OC[C@@]45CCCN4C[C@H](F)C5)nc(N(CC(N)=O)Cc4cccnc4N)n3)C1)SC2 [Compound 194] is ____.
// result 1000 to 20000 nM

* * *

Molecular target: GST-tagged KRAS-G12V (2-169) (Homo sapiens, UniProt P01116, G12V)
Sequence (P01116 2-169 isoform P01116-2 G12V): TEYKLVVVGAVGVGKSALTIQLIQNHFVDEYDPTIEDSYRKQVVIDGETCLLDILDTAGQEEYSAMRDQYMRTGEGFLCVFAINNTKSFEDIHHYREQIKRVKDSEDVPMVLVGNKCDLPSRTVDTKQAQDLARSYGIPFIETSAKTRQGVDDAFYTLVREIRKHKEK
Assay: Nucleotide exchange assay (NEA), SOS-mediated, HTRF, KRAS G12V
Conditions: Table 4; IC50 extracted at 90 min; 80 nM SOS
Text: This activity is tightly regulated by GTPase activating proteins (GAPs) and guanine nucleotide exchange factors (GEFs). […] Homogenous time resolved fluorescence (HTRF) was used to detect SOS-mediated binding of a fluorescent GTP analog, GTP-DY-647P1 (Jena Biosciences NU-820-647P1) to GST-tagged KRAS-G12D (2-169) or to GST-tagged KRAS-G12V (2-169, Reaction Biology, MSC-11-540). […]
Listed here are molecules together with their documented IC50.

// query Fill in the blank: the reported IC50 of CCN(c1nc(OC[C@@]23CCCN2C[C@H](F)C3)nc(N2CC3(C2)c2c(sc(N)c2C#N)CN3CC#N)n1)[C@H](C)c1cccnc1N is ____.
// result 100 to 1000 nM

// query Fill in the blank: the reported IC50 of CCN(c1nc(OC[C@@]23CCCN2C[C@H](F)C3)nc(N2CC3(C2)SCc2sc(N)c(C#N)c23)n1)C(C)c1nonc1N (stereo partly drawn) is ____.
// result < 10 nM

// query Fill in the blank: the reported IC50 of C[C@H](c1cccnc1N)N(CCC#N)c1nc(OCC2(CN3CCOCC3)CC2)nc(N2CC3(C2)SCc2sc(N)c(C#N)c23)n1 is ____.
// result < 10 nM

* * *

Target: KRAS G12D/RAF1 (Homo sapiens, UniProt P01116, G12D)
Construct: KRAS (1-169) proteins were expressed in BL21 (DE3)-CodonPlus E. coli; His6-MBP (N, cleaved yes)
Sequence (P01116 with tags, fused parts or gaps isoform P01116-2 G12D): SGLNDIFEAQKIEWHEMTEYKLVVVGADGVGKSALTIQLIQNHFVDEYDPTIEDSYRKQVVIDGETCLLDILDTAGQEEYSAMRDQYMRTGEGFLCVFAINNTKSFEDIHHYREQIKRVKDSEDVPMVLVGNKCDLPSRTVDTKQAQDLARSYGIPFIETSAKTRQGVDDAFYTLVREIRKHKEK
Experiment: Protein-protein interaction (PPI) HTRF assay KRAS G12D/RAF1
Assay type: binding
Details: Table 2
Listed here are compounds together with their documented IC50.

1) CN(CC1(C#N)CC1)c1nc(OC[C@@]23CCCN2C[C@H](F)C3)nc(N2CC3(CCc4sc(N)c(C#N)c43)C2)n1 [Compound 15] : 1 to 10 µM

// query Param readout= IC50; system= KRAS G12D/RAF1 (Homo sapiens, UniProt P01116, G12D); entry= N#Cc1c(N)sc(Cl)c1C1CCN(c2nc(OCC3(CN4CCOCC4)CC3)nc(N3C[C@H]4CC[C@@H](C3)N4)n2)C1 (stereo partly drawn) [Compound 4] ; returns value.
// result 1 to 10 µM

// query Param readout= IC50; system= KRAS G12D/RAF1 (Homo sapiens, UniProt P01116, G12D); entry= N#Cc1c(N)sc2c1C1(CC2)CN(c2nc(OCC3(CN4CCOCC4)CC3)nc(N3CCCC4(C3)NC(=O)NC4=O)n2)C1 (stereo not drawn) [Compound 7] ; returns value.
// result 0.1 to 1 µM

// query Param readout= IC50; system= KRAS G12D/RAF1 (Homo sapiens, UniProt P01116, G12D); entry= N#Cc1c(N)sc2c1C1(CC2)CN(c2nc(OCC34CCCN3CC(F)C4)nc(N3CC4CCC(C3)N4)n2)C1 (stereo not drawn) [Compound 1] ; returns value.
// result 0.1 to 1 µM

// query Param readout= IC50; system= KRAS G12D/RAF1 (Homo sapiens, UniProt P01116, G12D); entry= C[C@]1(O)CN(c2nc(OC[C@@]34CCCN3C[C@H](F)C4)nc(N3CC4(CCc5sc(N)c(C#N)c54)C3)n2)CC[C@H]1O [Compound 21] ; returns value.
// result 0.1 to 1 µM

// query Param readout= IC50; system= KRAS G12D/RAF1 (Homo sapiens, UniProt P01116, G12D); entry= CC1(CO)CCCN(c2nc(OC[C@@]34CCCN3C[C@H](F)C4)nc(N3CC4(CCc5sc(N)c(C#N)c54)C3)n2)C1 (stereo partly drawn) [Compound 18] ; returns value.
// result 1 to 10 µM

// query Param readout= IC50; system= KRAS G12D/RAF1 (Homo sapiens, UniProt P01116, G12D); entry= N#Cc1c(N)sc2c1C1(CC2)CN(c2nc(OC[C@@]34CCCN3C[C@H](F)C4)nc(N3CC[C@@H](O)[C@@H](O)C3)n2)C1 (racemic) [Compound 22] ; returns value.
// result 1 to 10 µM

// query Param readout= IC50; system= KRAS G12D/RAF1 (Homo sapiens, UniProt P01116, G12D); entry= N#Cc1c(N)sc2c1C1(CC2)CCN(c2nc(OC[C@@]34CCCN3C[C@H](F)C4)nc(N3CCCC(C#N)CC3)n2)C1 (stereo partly drawn) [Compound 12] ; returns value.
// result 10 to 100 µM

// query Param readout= IC50; system= KRAS G12D/RAF1 (Homo sapiens, UniProt P01116, G12D); entry= CC1(C#N)CCCN(c2nc(OC[C@@]34CCCN3C[C@H](F)C4)nc(N3CC4(CCc5sc(N)c(C#N)c54)C3)n2)C1 (stereo partly drawn) [Compound 19] ; returns value.
// result 1 to 10 µM

Taken from patent US12421254B2.
